Tested on: SDMA in Z-138 cells
ASSAY_EXPLANATION: Inhibitory activity on SDMA in cells (immunofluorescent assay)
Format: cell-based
SETTINGS: Homo sapiens, 48 h, 2 days, read-out: Inhibition of SDMA in cells IC50
Excerpt: Materials and cells: Z-138 cells were purchased from ATCC (USA); IMDM medium and penicillin-streptomycin were purchased from Sigma PLC. […] Immunofluorescent assay: The effects of the compounds on SDMA in Z-138 cells were detected by using immunofluorescence. […] The supernatant was discarded, the plate was washed with 0.05% PBST, and the fluorescent intensity was detected with ImageXpress Nano.
Structures can show the parent of a compound that is named as a salt.
Exercise: for every item that follows, state its recorded IC50.
Write the numeric value and append its unit.

Prompt: # query: IC50 of entry COC1CC2(CCN(C(=O)c3ccc4c(c3)OCCN(C[C@@H](O)[C@@H]3Cc5ccccc5CN3)C4=O)CC2)C1
Completion: 6.1 nM

Prompt: What does the record list as IC50 for CCN1CCN(C[C@@H](O)[C@@H]2Cc3ccccc3CN2)C(=O)c2ccc(C(=O)N3C4CCC3COC4)cc21.Cl [Compound 001, hydrochloride] ?
Completion: 3.8 nM

Prompt: // returns reported IC50 for input CCN1CCN(C[C@@H](O)[C@@H]2Cc3ccccc3CN2)C(=O)c2ccc(C(=O)N3CCC4(CCC(OC)CC4)CC3)cc21 [Compound 006, hydrochloride]
Completion: 1.8 nM

Prompt: IC50 for CCN1CCN(C[C@@H](O)[C@@H]2Cc3ccccc3CN2)C(=O)c2ccc(C(=O)N3CCC4(CC3)CC(C#N)C4)cc21 ?
Completion: 0.8 nM

Prompt: Find the recorded IC50 belonging to CCN1CCN(C[C@@H](O)[C@@H]2Cc3ccccc3CN2)C(=O)c2ccc(C(=O)N3C4CCC3CC(OC)C4)cc21.Cl (stereo partly shown) [Compound 004, hydrochloride] and report it.
Completion: 1.4 nM

Prompt: Consider the compound CCN1CCN(C[C@@H](O)[C@@H]2Cc3ccccc3CN2)C(=O)c2ccc(C(=O)N3CCC4(CC3)CC(OC)C4)cc21.Cl [Compound 002, hydrochloride] and give its measured IC50.
Completion: 1.4 nM

Prompt: Recorded IC50 for COC1CC2CCC(C1)N2C(=O)c1ccc2c(c1)N(C)CCN(C[C@@H](O)[C@@H]1Cc3ccccc3CN1)C2=O.Cl (stereo partly shown) [Compound 005, hydrochloride] , please?
Completion: 1.5 nM
